experiment: PK results in human, Compound (A) given orally once-a-day; assay type: in vivo; conditions: human, serum, po, 60 ug, human, oral 60 μg once-a-day, after repeated dose
quantity: Cmax (ng/mL)
Numbers only, in ng/mL.

Ask: // lookup Cmax for C[C@H]1CCCN(CCCOc2ccc(-c3cc[n+]([O-])cc3)cc2)C1 [Compound (A)]
Result: 0.172

* * *

I'd appreciate it if you could supply ratio of plasma AUC over the AUC of the dihydrochloride tetrahydrate values for the items below.
experiment: Comparative pharmacokinetic data in mice (plasma and brain); settings: male swiss mice
One number for each entry.

molecule="C[C@H]1CCCN(CCCOc2ccc(-c3cc[n+]([O-])cc3)cc2)C1.O=C(O)c1cc2ccccc2c(Cc2c(O)c(C(=O)O)cc3ccccc23)c1O [Example 8]" measurement=0.9

Lab note: each molecule below needs its ratio of plasma AUC over the AUC of the dihydrochloride tetrahydrate filled in.
1. C[C@H]1CCCN(CCCOc2ccc(-c3cc[n+]([O-])cc3)cc2)C1.O=P(O)(O)O [Example 12]
2. C[C@H]1CCCN(CCCOc2ccc(-c3cc[n+]([O-])cc3)cc2)C1.O=S(=O)(O)O [Example 15]
3. C[C@H]1CCCN(CCCOc2ccc(-c3cc[n+]([O-])cc3)cc2)C1.O=C(O)/C=C/C(=O)O [Example 9]

Result:
0.6
0.8
0.7

* * *

Kindly supply the reported ratio of plasma AUC over the AUC of the dihydrochloride tetrahydrate values for the records listed here.
test: Comparative pharmacokinetic data in mice (plasma and brain); details: male swiss mice
Numbers only.

// known answers, use as guide
compound="C[C@H]1CCCN(CCCOc2ccc(-c3cc[n+]([O-])cc3)cc2)C1.O.O.O.O=C(O)C(O)C(O)C(=O)O [Example 7]" measurement=0.7
compound="C[C@H]1CCCN(CCCOc2ccc(-c3cc[n+]([O-])cc3)cc2)C1 [Example 5]" measurement=1.2
compound="C[C@H]1CCCN(CCCOc2ccc(-c3cc[n+]([O-])cc3)cc2)C1.O=C(O)C(=O)O [Example 6]" measurement=0.9

Could you now consider this next compound?
Ask: # get_value(readout='ratio of plasma AUC over the AUC of the dihydrochloride tetrahydrate', item= C[C@H]1CCCN(CCCOc2ccc(-c3cc[n+]([O-])cc3)cc2)C1.Cl.Cl.O.O.O.O [Example 4] )
Result: 1.0
